- System: RPMI-8226 leukemia
- protocol: NCI tumour cell line growth inhibition, 48 h
# maps each entry to its GI50
result_type: GI50

INSERT INTO assay_data (smiles, result_type, readout_value) VALUES
  ('COc1c(O)cc2c(c1CC=C(C)C)OC(=O)c1c(cc(O)c(CC=C(C)C)c1O)O2', 'GI50', '5.95 µM'),
  ('COC(=O)Nc1nc2ccc(C(=O)C3CC3)cc2[nH]1', 'GI50', '0.219 µM'),
  ('Fc1ccc(-c2nn3c(COc4ccccc4Cl)nnc3s2)cc1Oc1ccccc1', 'GI50', '51.1 µM'),
  ('O=C1/C(=C\c2ccc(Cl)cc2)CN(C(=O)c2ccccc2)C/C1=C\c1ccc(Cl)cc1', 'GI50', '0.274 µM');

* * *

Each item that follows carries a reported TGI.
- System: SK-MEL-2 melanoma
- protocol: NCI tumour cell line growth inhibition, 48 h
result_type: TGI

INSERT INTO assay_data (compound, result_type, readout_value) VALUES
  ('N#CC(NNC(=O)Cc1ccccc1)c1ccc(O)cc1 (stereo unspecified)', 'TGI', '> 100 µM'),
  ('Nc1ccc(N=Nc2ccc(-c3ccc(N=Nc4c(S(=O)(=O)O)cc5cc(S(=O)(=O)O)c(N=Nc6ccc([N+](=O)[O-])cc6)c(N)c5c4O)cc3)cc2)c2cc(S(=O)(=O)O)ccc12', 'TGI', '> 100 µM'),
  ('S=c1sc2sc(=S)sc2s1', 'TGI', '> 100 µM'),
  ('COc1cc2c3c(n(CCCNC(C)(C)CO)c(=O)c2cc1OC)-c1cc2c(cc1C3=O)OCO2', 'TGI', '> 78.5 µM'),
  ('COC(=O)c1oc([N+](=O)[O-])c(-c2ccccc2)c1-c1ccccc1', 'TGI', '> 100 µM'),
  ('O=C1CNC(=O)N1', 'TGI', '> 1120 µM');

* * *

- Test system: RPMI-8226 leukemia
- protocol: NCI tumour cell line growth inhibition, 48 h
Where a SMILES comes first, the peptide text is derived from it. The star is where a group is joined. Boc = CC(C)(C)OC(=O)*
result_type: TGI

INSERT INTO assay_data (molecule, result_type, readout_value) VALUES
  ('CC(=O)OC1C(COC(N)=O)OC(n2c(-c3ccc(C)cc3)cc(-c3ccccc3)c(C#N)c2=O)C(OC(C)=O)C1OC(C)=O (stereo not drawn)', 'TGI', '> 100 µM'),
  ('CNC(=O)CNC(=O)C(NC(=O)CNC(=O)C1CCCN1C(=O)C(C)NC(=O)C(NC(=O)OC(C)(C)C)C(C)C)C(C)C (stereo not drawn) (Boc-VAPGVG-NHMe; configuration not given here)', 'TGI', '> 100 µM'),
  ('Brc1ccc2[nH]cc([C@@H]3CN[C@@H](c4c[nH]c5ccc(Br)cc45)CN3)c2c1', 'TGI', '5.46 µM'),
  ('CNC(=O)N(CCCC(NC(C)=O)C(=O)NCc1ccccc1)Cc1ccccc1 (stereo not drawn)', 'TGI', '> 100 µM'),
  ('CCC(CO)COC(=O)/C=C/C(=O)OCC(CC)CO (stereo not drawn)', 'TGI', '> 100 µM'),
  ('COc1ncnn2ccc(-c3cnc4nc(C)n(Cc5nnc(C(C)F)o5)c4c3)c12 (stereo not drawn)', 'TGI', '> 45.6 µM'),
  ('CCOC(=O)Cc1csc(Nc2nc(O)c(C3=c4ccccc4=NC3=O)s2)n1', 'TGI', '53.2 µM'),
  ('COc1cc(Br)cc2c1O[C@H]1C(=O)CC3CC21CCN3C (stereo partly drawn)', 'TGI', '63.4 µM'),
  ('COc1cc(S(=O)(=O)Nc2ccc(-c3csc(/N=C\c4ccccc4O)n3)cc2)ccc1Cl', 'TGI', '> 100 µM'),
  ('CC(C)c1ccc2c(c1)CCC1C(C)(CN)CCCC21C (stereo not drawn)', 'TGI', '4.3 µM'),
  ('CN(NC(=O)c1ccc(Cl)cc1)C1=NCCCCN1', 'TGI', '> 100 µM'),
  ('CCN1CCC(O)(/C=C/c2cccc(C)c2)C(C(=O)/C=C/c2cccc(C)c2)C1 (stereo not drawn)', 'TGI', '4.78 µM'),
  ('CC(=O)OC12c3ccccc3C(c3ccccc31)C1C(=O)N(c3ccccc3O)C(=O)C12 (stereo not drawn)', 'TGI', '> 100 µM');
